ASSAYED_SYSTEM: Histamine H1 receptor (Homo sapiens)
ASSAY_METHOD_TEXT: Antagonist activity at recombinant human histamine H1 receptor assessed as inhibition of agonist-induced effect at 10 uM by aequorin reporter based assay
Format: functional
Rule: inhibition of 30% or more gives satisfied; anything lower gives not satisfied.

Previously resolved entries follow.
CN(CCNC(=O)c1ccc([N+](=O)[O-])cc1)Cc1ccccc1 not satisfied
CN(CCCNC(=O)c1cccc(Br)c1)Cc1ccccc1 satisfied
CN(CCCNC(=O)c1ccc([N+](=O)[O-])cc1)Cc1ccccc1 not satisfied
CN(CCNC(=O)c1ccc(Cl)cc1)Cc1ccccc1 satisfied

Ask: Can `COc1cccc(C(=O)NCCCN(C)Cc2ccccc2)c1` be said to have inhibition at or above 30%?
Result: satisfied

Ask: What about `CN(CCCNC(=O)c1ccc(Cl)cc1)Cc1ccccc1` ?
Result: satisfied

Ask: One more compound: `CCCc1ccc(C(=O)NCCCN(C)Cc2ccccc2)cc1`
Result: not satisfied

Ask: Now consider `COc1ccc(C(=O)NCCCN(C)Cc2ccccc2)cc1` and answer again.
Result: not satisfied

Ask: Quick one: `CN(CCCNC(=O)c1ccc(Br)cc1)Cc1ccccc1`
Result: not satisfied

====

ASSAYED_SYSTEM: UniProt P41145
Sequence (P41145 whole entry): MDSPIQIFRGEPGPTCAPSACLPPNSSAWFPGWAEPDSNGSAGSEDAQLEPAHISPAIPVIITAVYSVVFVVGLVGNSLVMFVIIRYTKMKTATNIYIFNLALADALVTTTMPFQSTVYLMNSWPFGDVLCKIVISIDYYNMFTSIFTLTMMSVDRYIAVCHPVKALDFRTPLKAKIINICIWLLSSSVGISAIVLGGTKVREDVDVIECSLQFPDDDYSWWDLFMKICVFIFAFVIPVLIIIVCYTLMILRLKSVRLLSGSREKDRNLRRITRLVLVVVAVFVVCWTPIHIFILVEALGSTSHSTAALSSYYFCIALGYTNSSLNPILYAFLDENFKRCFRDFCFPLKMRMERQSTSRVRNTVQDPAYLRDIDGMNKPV
ASSAY_METHOD_TEXT: Agonist activity at recombinant human kappa-type opioid receptor at 10 uM by GTPgamma[35S] binding-based assay relative to agonist
Assay type: functional
QUANTITY_KIND: Activity (%)
Give the value in % but do not write % after it.

The examples below pair each entry with its known result.
CN(CCNC(=O)c1ccc(C#N)cc1)Cc1ccccc1 5
CN(CCNC(=O)c1ccc([N+](=O)[O-])cc1)Cc1ccccc1 8
CN(CCNC(=O)c1ccc(Cl)cc1)Cc1ccccc1 5
COc1cccc(C(=O)NCCCN(C)Cc2ccccc2)c1 7
CN(CCCNC(=O)c1ccc(C(F)(F)F)cc1)Cc1ccccc1 1

Ask: Would you mind telling me what Activity value was observed for `CN(CCCNC(=O)c1ccc(Cl)cc1)CCc1ccccc1` ?
Result: -1

Ask: Same lookup for `CN(CCCNC(=O)c1ccc([N+](=O)[O-])cc1)Cc1ccccc1` , please.
Result: 2

====

ASSAYED_SYSTEM: Delta-type opioid receptor (Homo sapiens) (UniProt P41143)
Sequence (P41143 whole entry): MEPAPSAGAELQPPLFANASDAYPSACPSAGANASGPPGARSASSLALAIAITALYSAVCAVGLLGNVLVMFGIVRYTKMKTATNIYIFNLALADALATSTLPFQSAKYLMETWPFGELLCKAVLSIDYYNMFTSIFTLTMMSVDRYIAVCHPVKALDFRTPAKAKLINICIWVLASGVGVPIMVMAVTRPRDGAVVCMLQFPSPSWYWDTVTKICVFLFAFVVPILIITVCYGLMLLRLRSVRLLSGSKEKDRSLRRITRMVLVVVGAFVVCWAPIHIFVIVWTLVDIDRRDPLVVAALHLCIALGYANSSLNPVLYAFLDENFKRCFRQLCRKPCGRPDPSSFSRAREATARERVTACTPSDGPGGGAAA
ASSAY_METHOD_TEXT: Agonist activity at recombinant human delta-type opioid receptor at 10 uM by GTPgamma[35S] binding-based assay relative to agonist
Type: functional
QUANTITY_KIND: Activity (%)
Number in %, nothing else.

Worked examples, 4 molecules total:
COc1ccc(C(=O)NCCCN(C)Cc2ccccc2)cc1 -6
CN(CCCNC(=O)c1ccc(C(F)(F)F)cc1)Cc1ccccc1 3
CN(CCNC(=O)c1ccc([N+](=O)[O-])cc1)Cc1ccccc1 0
CCCc1ccc(C(=O)NCCCN(C)Cc2ccccc2)cc1 1

Ask: # lookup: Activity of `CN(CCCNC(=O)c1ccc(Cl)cc1)CCc1ccccc1`
Result: 0

====

Recorded inhibition, one value per entry.
ASSAYED_SYSTEM: Substance-P receptor (Homo sapiens)
ASSAY_METHOD_TEXT: Antagonist activity at recombinant human NK1R assessed as inhibition of agonist-induced effect at 10 uM by aequorin reporter based assay
Format: functional
Give the value, in units of %, as a plain number.

Worked examples, 2 compounds total:
CN(CCNC(=O)c1ccc(Cl)cc1)Cc1ccccc1 22
CCCc1ccc(C(=O)NCCCN(C)Cc2ccccc2)cc1 34

Now, please, on to the next compound.
Ask: For the compound `CN(CCNC(=O)c1ccc([N+](=O)[O-])cc1)Cc1ccccc1` , what inhibition is on record?
Result: 18

Data origin: ChEMBL document CHEMBL4130363
